Target: human orexin-1 receptor (Homo sapiens (Human))
Sequence (O43613 whole entry): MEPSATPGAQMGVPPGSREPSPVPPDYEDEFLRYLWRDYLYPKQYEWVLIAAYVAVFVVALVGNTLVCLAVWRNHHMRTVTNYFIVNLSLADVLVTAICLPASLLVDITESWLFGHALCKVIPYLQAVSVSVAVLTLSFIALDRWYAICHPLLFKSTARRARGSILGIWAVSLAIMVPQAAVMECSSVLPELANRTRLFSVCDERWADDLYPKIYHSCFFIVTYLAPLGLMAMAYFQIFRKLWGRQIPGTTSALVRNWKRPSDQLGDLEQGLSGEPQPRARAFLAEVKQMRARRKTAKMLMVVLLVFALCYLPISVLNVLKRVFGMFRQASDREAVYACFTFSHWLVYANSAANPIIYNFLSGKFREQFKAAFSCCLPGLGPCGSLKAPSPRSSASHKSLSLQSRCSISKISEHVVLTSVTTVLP
Test: In vitro assay: intracellular calcium measurements (FLIPR), antagonistic activity
Type: cell-based
Settings: CHO cells, 3 nM orexin-A, compound incubation 120 min; marked values are geometric means of n = 2-6; read-out: IC50 OX1
pIC50: −log10 of the molar value.
metric_name: pIC50

compound	metric_name	recorded_number
COc1cccc(OC)c1C1CCCCC(=O)N1Cc1cccc(-c2ccccn2)c1 (stereo not drawn) [Example 84]	pIC50	8.52
COc1cccc(OC)c1C1CCCCC(=O)N1Cc1cccc(-c2nccs2)c1 (stereo not drawn) [Example 85]	pIC50	8.70
COc1cccc(OC)c1C1CC(C)C(=O)N1Cc1ccnc(-c2ccccc2)c1 (stereo not drawn) [Example 139]	pIC50	7.46
CCOc1cccc(Cl)c1[C@@H]1C[C@@H](O)C(=O)N1Cc1ccc(OC(F)(F)F)cc1 (racemic) [Example 427]	pIC50	5.91
COc1cncc(OC)c1C1CCCCC(=O)N1Cc1csc(-c2ccccc2)n1 (stereo not drawn) [Example 277]	pIC50	6.67
COc1cccc(OC)c1C1CCCC(=O)N1Cc1ccc2ccccc2n1 (stereo not drawn) [Example 4a]	pIC50	7.80
COc1cccc(OC)c1C1CCC(=O)N1Cc1ccc(-c2ccccc2)cc1 (stereo not drawn) [Example 114]	pIC50	6.83
COc1cccc(OC)c1C1CCCC(=O)N1Cc1cncc(-c2ccccc2)c1 (stereo not drawn) [Example 8]	pIC50	5.77
COc1cccc(OC)c1C1CCC(=O)N1Cc1cccc(-c2cccnc2)c1 (stereo not drawn) [Example 115]	pIC50	6.66
CCOc1cccc(F)c1[C@@H]1C[C@H](F)C(=O)N1Cc1ccc(OC(F)(F)F)cc1 (racemic) [Example 342]	pIC50	5.95
COc1cccc(OC)c1C1CCCC(=O)N1Cc1cc(-c2ccccc2)ccn1 (stereo not drawn) [Example 22]	pIC50	6.78
COc1cccc(OC)c1C1CCCCC(=O)N1Cc1cnn(-c2ccccc2)c1 (stereo not drawn) [Example 94]	pIC50	6.92
CCOc1cccc(F)c1C1CC(C)C(=O)N1Cc1cccc(-c2ncc(C)s2)c1 (stereo not drawn) [Example 384]	pIC50	6.95
COc1cccc(OC)c1C1CCCC(=O)N1Cc1cc(Cl)cc(-c2ccccn2)c1 (stereo not drawn) [Example 49]	pIC50	7.55
COc1cccc(OC)c1C1CCCCC(=O)N1Cc1cccc(-n2nccn2)c1 (stereo not drawn) [Example 101]	pIC50	8.52
COc1cccc(OC)c1C1CCCCC(=O)N1Cc1ccc2oc3ccccc3c2c1 (stereo not drawn) [Example 90]	pIC50	9.00
COc1cccc(OC)c1C1CCCCC(=O)N1Cc1cccc(-c2csc(C)n2)c1 (stereo not drawn) [Example 91]	pIC50	9.00
CC1CC(c2ccccc2-c2ccccc2)N(Cc2ccc(OC(F)(F)F)cc2)C1=O (stereo not drawn) [Example 291]	pIC50	5.69

----------
Molecular target: human orexin-1 receptor (Homo sapiens (Human))
Assay: In vitro assay: intracellular calcium measurements (FLIPR), antagonistic activity
Assay type: cell-based
Details: CHO cells, 3 nM orexin-A, compound incubation time of 10 min; marked values are geometric means of n = 2-6; read-out: IC50 OX1
Protocol: In Vitro Assay: Intracellular Calcium Measurements: […] Fluorescence is measured for each well at 1 second intervals, and the height of each fluorescence peak is compared to the height of the fluorescence peak induced by 3 nM orexin-A with vehicle in place of antagonist. […] The calculated IC50 values may fluctuate depending on the daily cellular assay performance. […]
One threshold, 1 µM, splits the recorded IC50 values: lower ones are rule met, equal or higher ones are rule not met.

compound	class_name
O=C1CCCC(c2c(F)cccc2C(F)(F)F)N1Cc1ccc(OC(F)(F)F)cc1 (centres unmarked)	rule not met
COc1cccc(OCCCO)c1C1CCCC(=O)N1Cc1ccc(OC(F)(F)F)cc1 (centres unmarked)	rule not met
COc1cccc(OC)c1C1CCCC(=O)N1Cc1ccc(-n2cccn2)cc1 (centres unmarked)	rule not met
COc1cccc(OC)c1C1CCCC(=O)N1Cc1ccc(OC(F)F)cc1 (centres unmarked)	rule met
COc1cccc(OC)c1C1CCCC(=O)N1Cc1ccc2c(c1)OCO2 (centres unmarked)	rule not met
COc1cccc(OC)c1C1CCC(C)(C)C(=O)N1Cc1ccc(OC(F)(F)F)cc1 (centres unmarked)	rule not met
COc1cccc(OC)c1[C@@H]1C[C@@H](Cl)C(=O)N1Cc1ccc(OC(F)(F)F)cc1 (racemic)	rule met
COc1cccc(OC)c1C1CCCC(=O)N1Cc1ccc2c(ccn2C)c1 (centres unmarked)	rule met
